src = ChEMBL document CHEMBL1135216

- Tested on: E6SM
- EXPERIMENT_DESCRIPTION: Tested for antiviral activity against VSV-virus in human embryonic skin muscle fibroblasts
- Assay type: functional
- CONDITION_SET: Muscle tissue
MEASUREMENT_LABEL: MIC

The measured MIC associated with S=C(N/N=C(/c1ccccn1)C12CC3CC(CC(C3)C1)C2)NNC(=S)c1ccc(Cl)cc1Cl reads > 16 µg/mL

###

- Tested on: E6SM
- EXPERIMENT_DESCRIPTION: Tested for antiviral activity against VSV-virus in human embryonic skin muscle fibroblasts
- Assay type: functional
- CONDITION_SET: Muscle tissue
MEASUREMENT_LABEL: MIC

> print(dat)
                                   molecule  tested.on  measurement.label      result
1  N/C(S)=N\N=C(\c1ccccn1)C12CC3CC(CC(C3)C1)C2       E6SM                MIC  > 400 mg/L

The measured MIC associated with O=c1[nH]c(=O)n([C@H]2C[C@H](O)[C@@H](CO)O2)cc1/C=C/Br [BRIVUDINE] reads > 400 mg/L

The measured MIC associated with C/C(=N/N=C(/S)N/N=C(\S)c1ccc(Cl)cc1Cl)C12CC3CC(CC(C3)C1)C2 reads > 16 mg/L
